Experimental system: PL^pro (papain-like protease, domain of nsp3) (Severe acute respiratory syndrome coronavirus 2)
Experiment summary: fluorogenic short peptide protease assay, 384-well
Assay type: biochemical
Condition notes: read-out: IC50PLpro; short peptide substrate; 37 °C; 10-60 min preincubation
Measurement name: IC50

Enquiry: May I ask what IC50 has been recorded for "CC1=NN(c2ccc(C)c(C)c2)C(=O)/C1=N/Nc1cccc(-c2cccc(-c3nnn[nH]3)c2)c1O" ?
Return: ~54 µM
